Test system: corn (Zea mays)
Assay notes: Test C preemergence
Format: in vivo
Condition context: preemergence; Rate 250 g/ha; scale 0 to 100, 0 no effect, 100 complete control
Readout label: Plant response rating, Corn
The answer should be a number; do not append a unit.

Study these solved cases before continuing.
>>> reported_measurement("CCOc1cc(N2CCC(n3ccc(C(C)(C)C)n3)C2=O)ccc1C (stereo not shown)")
40
>>> reported_measurement("CC(C)(C)c1ccn(C2CCN(c3cccc(SC(F)(F)F)c3)C2=O)n1 (stereo not shown)")
0

Continue with the compound presented below.
Supply measured Plant response rating, Corn of COc1cc(N2CCC(n3ccc(C(C)(C)C)n3)C2=O)ccc1Cl (stereo not shown) in your reply.
45
